Quick list: MIC per entry.
Tested on: Mycobacterium tuberculosis
Assay: Antitubercular activity against Mycobacterium tuberculosis H37Rv in anaerobic condition after 7 days by low oxygen recovery assay
Assay type: functional
Settings: 168 h
measuredParameter: MIC (µM)

> print(dat)
                                 chemsmiles  measuredparameter  assayvalue
1  CC(=O)c1ccc(-c2cccc(CO[C@@H]3COc4nc([N+](=O)[O-])cn4C3)c2)cc1                MIC         1.9
2  O=[N+]([O-])c1cn2c(n1)OC[C@@H](OCc1ccc(-c3ccc(OC(F)F)cc3)cc1)C2                MIC        0.77
3  O=[N+]([O-])c1cn2c(n1)OC[C@@H](OCc1ccccc1-c1ccc(F)cc1)C2                MIC         3.4
4  COc1cc(C)c(-c2ccc(CO[C@@H]3COc4nc([N+](=O)[O-])cn4C3)cc2)c(C)c1                MIC        0.94

Source: ChEMBL document CHEMBL1156778
